conditions: 318.15 K; 101.33 kPa; Liquid
readout name: mass density (kg/m3)
Numbers only, in kg/m3.

// worked examples, mass density included
• CCCC[n+]1cccc(C)c1.O=S(=O)([N-]S(=O)(=O)C(F)(F)F)C(F)(F)F = 1394.5
• CCC[n+]1cccc(C)c1.O=S(=O)([N-]S(=O)(=O)C(F)(F)F)C(F)(F)F = 1428.8
• CCCC[n+]1ccc(C)cc1.O=S(=O)([N-]S(=O)(=O)C(F)(F)F)C(F)(F)F = 1393.6
• CCCCCCCC[n+]1cccc(C)c1 = 1312.3
• CCCC[n+]1ccccc1.O=S(=O)([N-]S(=O)(=O)C(F)(F)F)C(F)(F)F [1-butylpyridinium bis[(trifluoromethyl)sulfonyl]imide] = 1430

# input for lookup
Challenge: Return reported mass density; argument: CCCCCC[n+]1ccccc1.O=S(=O)([N-]S(=O)(=O)C(F)(F)F)C(F)(F)F [1-hexylpyridinium bis(trifluromethylsulfonyl)imide]
Response given: 1376.3

* * *

details: 363.15 K; 101.33 kPa; Liquid
readout name: mass density (kg/m3)
One number for each entry, in kg/m3.

// worked examples, mass density included
- CCCC[n+]1ccc(C)cc1.O=S(=O)([N-]S(=O)(=O)C(F)(F)F)C(F)(F)F: 1352.7
- CCCCCCCC[n+]1cccc(C)c1 [1-octyl-3-methylpyridinium]: 1274.1

Challenge: Return reported mass density; argument: "CCCC[n+]1cccc(C)c1.O=S(=O)([N-]S(=O)(=O)C(F)(F)F)C(F)(F)F"
Response given: 1354.1

* * *

conditions: 338.15 K; 101.33 kPa; Liquid
readout name: mass density (kg/m3)
One number for each entry, in kg/m3.

// worked examples, mass density included
* CCCCCC[n+]1ccccc1.O=S(=O)([N-]S(=O)(=O)C(F)(F)F)C(F)(F)F [1-hexylpyridinium bis(trifluromethylsulfonyl)imide] | 1358.5
* CCCC[n+]1cccc(C)c1.O=S(=O)([N-]S(=O)(=O)C(F)(F)F)C(F)(F)F | 1376.4
* CCCC[n+]1ccc(C)cc1.O=S(=O)([N-]S(=O)(=O)C(F)(F)F)C(F)(F)F | 1375.3
* CCCC[n+]1ccccc1.O=S(=O)([N-]S(=O)(=O)C(F)(F)F)C(F)(F)F [1-butylpyridinium bis[(trifluoromethyl)sulfonyl]imide] | 1411.6
* CCCCCCCC[n+]1cccc(C)c1 | 1295.2

# input for lookup
Challenge: Return reported mass density; argument: "CCC[n+]1cccc(C)c1.O=S(=O)([N-]S(=O)(=O)C(F)(F)F)C(F)(F)F"
Response given: 1410.3

* * *

settings: 328.15 K; 101.33 kPa; Liquid
readout name: viscosity (mPa·s)
Give bare numbers, in mPa·s.

// worked examples, viscosity included
• CCCC[n+]1ccccc1.O=S(=O)([N-]S(=O)(=O)C(F)(F)F)C(F)(F)F [1-butylpyridinium bis[(trifluoromethyl)sulfonyl]imide] = 20.23
• CCC[n+]1cccc(C)c1.O=S(=O)([N-]S(=O)(=O)C(F)(F)F)C(F)(F)F = 18.41
• CCCCCCCC[n+]1cccc(C)c1 [1-octyl-3-methylpyridinium] = 31.86
• CCCCCC[n+]1ccccc1.O=S(=O)([N-]S(=O)(=O)C(F)(F)F)C(F)(F)F [1-hexylpyridinium bis(trifluromethylsulfonyl)imide] = 27.79

# input for lookup
Challenge: Return reported viscosity; argument: "CCCC[n+]1ccc(C)cc1.O=S(=O)([N-]S(=O)(=O)C(F)(F)F)C(F)(F)F"
Response given: 18.36

Numbers sourced from the NIST ThermoML archive (doi:10.1021/je100377k).
